B1: NF2 (merlin) isoform 7, human, full length (507 aa, lacks exons 2-3 = isoform-1 residues 39-121; exon-16 C-terminus), P35240-4 (parent)
chain: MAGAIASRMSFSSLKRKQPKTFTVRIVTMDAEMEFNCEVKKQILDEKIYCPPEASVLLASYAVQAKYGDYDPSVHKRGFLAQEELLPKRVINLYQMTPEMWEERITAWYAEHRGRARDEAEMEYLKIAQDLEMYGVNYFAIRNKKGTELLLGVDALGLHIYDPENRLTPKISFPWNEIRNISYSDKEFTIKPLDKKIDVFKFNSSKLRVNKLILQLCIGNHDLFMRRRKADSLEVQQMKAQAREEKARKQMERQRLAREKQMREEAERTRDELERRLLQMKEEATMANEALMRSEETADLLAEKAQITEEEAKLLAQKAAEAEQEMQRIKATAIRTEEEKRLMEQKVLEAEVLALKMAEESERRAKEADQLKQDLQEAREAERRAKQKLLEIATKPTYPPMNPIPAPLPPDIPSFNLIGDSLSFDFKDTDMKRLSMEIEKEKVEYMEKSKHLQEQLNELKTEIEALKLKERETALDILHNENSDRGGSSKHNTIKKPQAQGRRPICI

- Variants of: B1
- protocol_description: reverse yeast two-hybrid deep mutational scan (rY2H-seq): NF2 isoform 7 mutant library as bait mated with wild-type prey strains; selection on medium lacking adenine for non-interacting pairs; NextSeq paired-end sequencing; enrichment vs …
- experimental_parameters: with EMILIN1 (elastin microfibril interfacer 1), Q9Y6C2; yeast diploids after mating (RBait_S3 x RPrey_S3), 30 °C, selection for reporter genes on NB agar; human tyrosine kinase ABL2 co-expressed as the active kinase …; HIGHER = WEAKER BINDING (the opposite of display enrichments): higher = stronger loss of interaction: reverse Y2H selects yeast in which bait and prey do NOT interact (growth without adenine), so a …; hits-only table; scale: rY2H score; numbering: uniprot, sequence starts at 1
Readings of enrichment for the listed variants

These recorded examples may help you get a feel for the data.
So what's the measured enrichment for this one? R335C 2.88

Would you kindly repeat that for P399E ? 1.72

What do you get for F426A ? 1.63

Param item: K386Q 2.16

Likewise for P403R ? 3.53

Continue with the variant presented below.
Which enrichment value belongs to R335A ? 43.3
